- system-name: BRDT(1) (Homo sapiens, UniProt Q58F21)
- Construct: made in house
- protocol-description: Protein stability (thermal) shift assay, BRDT(1)
- Assay type: binding
- condition-parameters: compound 10 μM, protein 2 μM; average of triplicate
recorded-metric: ΔTm at 10 µM

Looking for the measured ΔTm at 10 µM of COc1ccc(Br)cc1-c1nc(N)nc2c1ncn2C [Compound 8b] , can you help? 0.4 °C

Looking for the measured ΔTm at 10 µM of Nc1nc(-c2cc(Br)cc3c2OCC3)c2nc[nH]c2n1 [Compound 11] , can you help? 1.7 °C

Looking for the measured ΔTm at 10 µM of Nc1nc(-c2ccc(OCc3ccccc3)c(Cl)c2)c2nc[nH]c2n1 [Compound 4a] , can you help? -0.0553 °C

Looking for the measured ΔTm at 10 µM of Clc1nc(Cl)c2nc[nH]c2n1 [Compound 1, 2,6-dichloro-9H-purine] , can you help? -0.8 °C

Looking for the measured ΔTm at 10 µM of COc1ccc(Br)cc1-c1nc(Cl)nc2[nH]cnc12 [Compound 8a] , can you help? -0.541 °C

Looking for the measured ΔTm at 10 µM of COc1cccc(OC)c1-c1nc(N)nc2[nH]cnc12 [Compound 6a] , can you help? -0.122 °C

Looking for the measured ΔTm at 10 µM of Cn1cnc2c(-c3ccc(Oc4ccccc4)cc3)nc(N)nc21 [Compound 3e] , can you help? 0.6 °C

Looking for the measured ΔTm at 10 µM of COc1ccc(F)cc1-c1ncnc2[nH]c(C)nc12 [Compound 9b] , can you help? 0.2 °C

Looking for the measured ΔTm at 10 µM of CCOc1ccc(Br)cc1-c1nc(N)nc2[nH]cnc12 [Compound 7e] , can you help? 0.275 °C

Looking for the measured ΔTm at 10 µM of COc1cccc(OCC(C)C)c1-c1nc(N)nc2[nH]cnc12 [Compound 6c] , can you help? -0.0153 °C

Looking for the measured ΔTm at 10 µM of CCCCOc1cc(Br)cc(-c2nc(N)nc3[nH]cnc23)c1 [Compound 5a] , can you help? 1 °C

Looking for the measured ΔTm at 10 µM of Cn1cnc2c(Br)nc(N)nc21 [Compound 2b, 2-Amino-6-bromo-9-methylpurine] , can you help? -0.8 °C

Looking for the measured ΔTm at 10 µM of COc1ccc(F)cc1-c1nc(N)nc2[nH]cnc12 [Compound 7b] , can you help? -0.111 °C

Looking for the measured ΔTm at 10 µM of Nc1nc(-c2cccc(OCc3ccc(Cl)cc3)c2)c2nc[nH]c2n1 [Compound 4d] , can you help? 0.7 °C

Looking for the measured ΔTm at 10 µM of CCCCOc1cc(Br)cc(-c2nc(N)nc3c2ncn3C)c1 [Compound 5b] , can you help? 0.45 °C

---

- system-name: BRD4(1) (Homo sapiens, UniProt O60885)
- Construct: made in house
- protocol-description: Isothermal titration calorimetry, BRD4(1)
- Assay type: binding
- condition-parameters: ITC, 15 °C, reverse titration
- Experimental: Experiments were carried out on an ITC200 titration microcalorimeter from MicroCal, LLC (GE Healthcare) equipped with a Washing module, with a cell volume of 0.2003 mL, and a 40 μL microsyringe. […] Thermodynamic parameters were calculated using the basic equation of thermodynamics (ΔG = ΔH – TΔS = −RT ln KB, where ΔG, ΔH, and ΔS are the changes in free energy, enthalpy, and entropy of binding, respectively). […]
recorded-metric: N (stoichiometry)
Keep the answer to the number alone.

Looking for the measured N (stoichiometry) of Nc1nc(-c2cc(Br)cc3c2OCC3)c2nc[nH]c2n1 , can you help? 1.09

Looking for the measured N (stoichiometry) of COc1ccc(Cl)cc1-c1nc(N)nc2[nH]cnc12 , can you help? 1.05

Looking for the measured N (stoichiometry) of Nc1nc(-c2ccccc2)c2nc[nH]c2n1 , can you help? 1.03

Looking for the measured N (stoichiometry) of COc1ccc(Br)cc1-c1nc(N)nc2[nH]cnc12 , can you help? 0.99

---

- system-name: BRDT(1) (Homo sapiens)
- Construct: made in house
- protocol-description: Protein stability (thermal) shift assay, BRDT(1)
- Type: binding
- condition-parameters: compound 10 μM, protein 2 μM; average of triplicate
recorded-metric: ΔTm at 10 µM

Looking for the measured ΔTm at 10 µM of COc1ccc(Cl)cc1-c1nc(N)nc2[nH]cnc12 , can you help? 0.272 °C

Looking for the measured ΔTm at 10 µM of Nc1nc(-c2ccc(COc3cccc(C(F)(F)F)c3)cc2)c2nc[nH]c2n1 , can you help? -0.322 °C

Looking for the measured ΔTm at 10 µM of COc1ccc(Br)cc1-c1nc(N)nc2c1ncn2CC(C)=O , can you help? 0.151 °C

Looking for the measured ΔTm at 10 µM of Cn1cnc2c(-c3cccc(OCc4ccc(Cl)cc4)c3)nc(N)nc21 , can you help? 0.273 °C

Looking for the measured ΔTm at 10 µM of COc1ccc(Br)cc1-c1nc(O)nc2[nH]cnc12 , can you help? 0.653 °C

Looking for the measured ΔTm at 10 µM of COCCc1ccc(OCc2ccc(-c3nc(N)nc4[nH]cnc34)cc2)cc1 , can you help? 0.528 °C

Looking for the measured ΔTm at 10 µM of Nc1nc(-c2ccc(Oc3ccccc3)cc2)c2nc[nH]c2n1 , can you help? 0.253 °C

Looking for the measured ΔTm at 10 µM of Nc1nc(-c2ccc3c(c2)OCCO3)c2nc[nH]c2n1 , can you help? -0.125 °C

Looking for the measured ΔTm at 10 µM of COc1ccc(F)cc1-c1nc(O)nc2[nH]cnc12 , can you help? 0.9 °C

---

I'd be grateful if you could share measured ΔTm at 10 µM for these entries.
- system-name: BAZ2B (Homo sapiens, UniProt Q9UIF8)
- Construct: representative BRDs from other structural subfamilies (family I, PCAF); family III, CREBBP; family IV, BRD9; family V, BAZ2B; made in house
- Sequence (Q9UIF8 2060-2164 limits assumed): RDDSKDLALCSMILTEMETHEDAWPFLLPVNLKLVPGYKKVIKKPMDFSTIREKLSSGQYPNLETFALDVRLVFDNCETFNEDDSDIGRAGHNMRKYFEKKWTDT
- protocol-description: Protein stability (thermal) shift assay, BAZ2B
- Type: binding
- condition-parameters: compound 10 μM, protein 2 μM; average of triplicate; read-out: ΔTm Shift, BAZ2BA
Could you kindly put the unit after your number?

Looking for the measured ΔTm at 10 µM of COc1ccc(Br)cc1-c1nc(N)nc2c1ncn2C [Compound 8b] , can you help? 0.6 °C

Looking for the measured ΔTm at 10 µM of COc1cccc(OC)c1-c1nc(N)nc2[nH]cnc12 [Compound 6a] , can you help? 0.0167 °C

Looking for the measured ΔTm at 10 µM of COc1cc(COc2ccc(-c3nc(N)nc4[nH]cnc34)cc2Cl)cc(OC)c1 [Compound 4b] , can you help? 2.3 °C

Looking for the measured ΔTm at 10 µM of Cn1cnc2c(Br)nc(N)nc21 [Compound 2b, 2-Amino-6-bromo-9-methylpurine] , can you help? -0.8 °C

Looking for the measured ΔTm at 10 µM of Nc1nc(-c2cccc(OCc3ccc(Cl)cc3)c2)c2nc[nH]c2n1 [Compound 4d] , can you help? 0.653 °C

Looking for the measured ΔTm at 10 µM of COCCc1ccc(OCc2ccc(-c3nc(N)nc4[nH]cnc34)cc2)cc1 [Compound 3h] , can you help? -0.127 °C

Looking for the measured ΔTm at 10 µM of Cn1cnc2c(-c3ccc(Oc4ccccc4)cc3)nc(N)nc21 [Compound 3e] , can you help? 0.6 °C

Looking for the measured ΔTm at 10 µM of Nc1nc(-c2cc(Br)cc3c2OCC3)c2nc[nH]c2n1 [Compound 11] , can you help? 0.37 °C

Looking for the measured ΔTm at 10 µM of CCCCOc1cc(Br)cc(-c2nc(N)nc3[nH]cnc23)c1 [Compound 5a] , can you help? 1.1 °C

---

- system-name: PB1(5) (Homo sapiens, UniProt Q86U86)
- Construct: made in house
- Sequence (Q86U86 653-763 limits assumed): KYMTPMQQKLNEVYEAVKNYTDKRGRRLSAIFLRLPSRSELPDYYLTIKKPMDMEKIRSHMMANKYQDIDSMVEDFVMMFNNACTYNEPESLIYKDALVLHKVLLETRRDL
- protocol-description: Protein stability (thermal) shift assay, PB1(5)
- Assay type: binding
- condition-parameters: compound 10 μM, protein 2 μM; average of triplicate
recorded-metric: ΔTm at 10 µM
Could you kindly put the unit after your number?

Looking for the measured ΔTm at 10 µM of Cn1cnc2c(-c3cccc(OCc4ccc(Cl)cc4)c3)nc(N)nc21 [Compound 4e] , can you help? 0.5 °C

Looking for the measured ΔTm at 10 µM of COc1ccc(Br)cc1-c1nc(N)nc2[nH]cnc12 [Compound 7d] , can you help? 1.6 °C

Looking for the measured ΔTm at 10 µM of COc1ccc(F)cc1-c1ncnc2[nH]c(C)nc12 [Compound 9b] , can you help? 0.0705 °C

Looking for the measured ΔTm at 10 µM of COc1ccc(Cl)cc1-c1nc(N)nc2[nH]cnc12 [Compound 7c] , can you help? 0.272 °C

Looking for the measured ΔTm at 10 µM of COc1ccccc1-c1nc(N)nc2[nH]cnc12 [Compound 7a, 2-Amino-6-(2-methoxyphenyl)-9H-purine] , can you help? 0.236 °C

Looking for the measured ΔTm at 10 µM of Nc1nc(-c2ccc(OCc3ccccc3)c(Cl)c2)c2nc[nH]c2n1 [Compound 4a] , can you help? 0.536 °C

Looking for the measured ΔTm at 10 µM of Nc1nc(-c2ccc(OCc3ccccc3)cc2)c2nc[nH]c2n1 [Compound 3f] , can you help? 1.5 °C

Looking for the measured ΔTm at 10 µM of Nc1nc(-c2cc(Br)cc3c2OCC3)c2nc[nH]c2n1 [Compound 11] , can you help? 0.8 °C

Looking for the measured ΔTm at 10 µM of COc1ccc(Br)cc1-c1nc(N)nc2c1ncn2C [Compound 8b] , can you help? 0.7 °C
